Let's look at some sequences and their measured folding stability dG unfold.
assayNotes: folding stability dG unfold (combined trypsin and chymotrypsin); higher = more stable
# value in kcal/mol; strip the unit string

Illustrative cases are given below, each with its answer.
sequence: SAMEVKIEKVEVKDGTVRITVTVKVSEEQLEKVKELAEKLKEKGYEVKVVKVEKLEDGTIKVEIEVKPKSAG [r14_354_TrROS_Hall]
folding stability dG unfold (kcal/mol): 2.66
--
sequence: SAGGSAGGSAGGKTYRVKVRIYNPETGEVLEIEVEVETDTEEEAKRAAENLARELLKKSSAGGSAGGSAGGS [r10_863_TrROS_Hall]
folding stability dG unfold (kcal/mol): 3.47

Query: I would be grateful if you could share the reported folding stability dG unfold for SAGGSAGGSGSMKVYTHNVPPGQELTITITRGSSSTTLTFPPNTTVTITVPTSSPATITLTAPSAGGSAGGS [r12_550_JUSTAS] .
Result: 1.74

Just for reference, the supplement of paper PMC12764529 is where these values come from.
